system: SNB-19 CNS; assay: NCI-60 one-dose screen, 48 h (100 = growth as untreated, 0 = no growth, -100 = all killed); details: 10 µM unless noted
This is part of a sample that, as a whole, favours compounds with a hit. Of some 83,000 tested, about 20% had one in any assay.

>  <Compound>
COc1c2ccccc2c(OC)c2[nH]c(=O)ccc12

>  <growth [%]>
12.2

$$$$
>  <Compound>
O=[N+]([O-])c1cccc(-c2nc3sccn3c2-c2ccnc(NCCCNS(=O)(=O)c3ccc(Br)cc3)n2)c1

>  <growth [%]>
87.4

$$$$
>  <Compound>
CC(=O)OCC(=O)C1CCC=CC1OC(C)=O (stereo unspecified)

>  <growth [%]>
93.5

$$$$
>  <Compound>
Cn1c(=O)c2c(ncn2CC[N+](C)(C)C)n(C)c1=O

>  <growth [%]>
101

$$$$
>  <Compound>
CC1=C(NCCN2CCCC2)C(=O)c2c(OCc3cccc(Cl)c3)cccc2C1=O

>  <growth [%]>
99.4

$$$$
>  <Compound>
CCOC(=O)c1cnc2cc(Cl)c(F)cc2c1Nc1cccc(NS(C)(=O)=O)c1

>  <growth [%]>
93.9

$$$$
>  <Compound>
O=C(CN1CCN(c2cc3c(cc2F)c(=O)c(C(=O)O)cn3C2CC2)CC1)Nc1nc(-c2ccccc2)cs1

>  <growth [%]>
86.8

$$$$
>  <Compound>
COc1ccc(C2Nc3ccccc3-n3cccc32)cc1 (stereo unspecified)

>  <growth [%]>
97.8

$$$$
>  <Compound>
COc1cc(/C=N/N(C)C)ccc1O

>  <growth [%]>
99

$$$$
>  <Compound>
Fc1ccc(Cc2ccc(F)cc2)cc1

>  <growth [%]>
102

$$$$
>  <Compound>
CCCCCCCCCCCCCCCCCCNC(=O)[C@H]1CSC(c2ccc(F)c(OC)c2)N1 (stereo partly specified)

>  <growth [%]>
-40.2

$$$$

---

tested on: 786-0 renal; test: NCI-60 one-dose screen, 48 h (100 = growth as untreated, 0 = no growth, -100 = all killed); settings: 10 µM unless noted
About 83,000 compounds went through this panel and 20% of them were active in at least one assay; those are over-represented in the sample as a whole.
Measured Attribute: growth (%)

>  <Compound>
CC/C(Cc1ccccc1)=C(\c1ccc(OCCN2CCCC2)cc1)c1ccc(OC(C)=O)cc1

>  <Measured Attribute>
growth

>  <Readout Unit>
%

>  <Data Value>
82.3

$$$$
>  <Compound>
COC(=O)[C@@H]1CC[C@]2(C)[C@H](CC[C@@H]3O[C@@]32C)[C@@]1(C)CC(=O)c1ccoc1

>  <Measured Attribute>
growth

>  <Readout Unit>
%

>  <Data Value>
107

$$$$
>  <Compound>
Oc1ccccc1N=Cc1c(O)ccc2ccccc12

>  <Measured Attribute>
growth

>  <Readout Unit>
%

>  <Data Value>
86.2

$$$$
>  <Compound>
COc1ccc(-c2nc(Nc3cc(C)[nH]n3)c3ccccc3n2)cc1

>  <Measured Attribute>
growth

>  <Readout Unit>
%

>  <Data Value>
50

$$$$
>  <Compound>
COc1cc(-c2c3c(nc4c2c(C)nn4-c2ccccc2)-c2ccccc2C(=O)C3=O)cc(OC)c1OC

>  <Measured Attribute>
growth

>  <Readout Unit>
%

>  <Data Value>
97.8

$$$$
>  <Compound>
CCCCCCNC(=O)Oc1ccc(/C(=C(\C)c2ccccc2)c2ccc(OCCN(CC)CC)cc2)cc1

>  <Measured Attribute>
growth

>  <Readout Unit>
%

>  <Data Value>
44.7

$$$$
>  <Compound>
COc1ccc(-n2c(C)nc3c(c(C)nn3-c3ccccc3)c2=O)cc1

>  <Measured Attribute>
growth

>  <Readout Unit>
%

>  <Data Value>
27.4

$$$$
>  <Compound>
COc1cnc2c(c1)C(=O)c1c-2n(CCCN2CCN(C)CC2)c(=O)c2cc([N+](=O)[O-])ccc12

>  <Measured Attribute>
growth

>  <Readout Unit>
%

>  <Data Value>
-87.1

$$$$
>  <Compound>
Cc1cc(OCc2ccc(C(F)(F)F)cc2)c2c(c1)C(=O)C=C(NCCN1CCCC1)C2=O

>  <Measured Attribute>
growth

>  <Readout Unit>
%

>  <Data Value>
58.5

$$$$
>  <Compound>
COc1c(Cl)cc(Cl)cc1Cl

>  <Measured Attribute>
growth

>  <Readout Unit>
%

>  <Data Value>
112

$$$$
>  <Compound>
Oc1c(Cl)cc(Cl)cc1CNc1nccnn1

>  <Measured Attribute>
growth

>  <Readout Unit>
%

>  <Data Value>
111

$$$$
>  <Compound>
COc1cccc(-c2cn3c(ccc4ccccc43)n2)c1

>  <Measured Attribute>
growth

>  <Readout Unit>
%

>  <Data Value>
44.4

$$$$
>  <Compound>
CCN(CC)Cc1cc(Nc2c3ccc(Cl)cc3nc3c(C)cccc23)ccc1O

>  <Measured Attribute>
growth

>  <Readout Unit>
%

>  <Data Value>
-91.6

$$$$
>  <Compound>
NC(=S)N/N=C/c1cc(-c2cccc(N)c2)ccn1

>  <Measured Attribute>
growth

>  <Readout Unit>
%

>  <Data Value>
31.4

$$$$
>  <Compound>
Cn1c(=O)c2c(ncn2CC[N+](C)(C)C)n(C)c1=O

>  <Measured Attribute>
growth

>  <Readout Unit>
%

>  <Data Value>
108

$$$$
>  <Compound>
COc1cccc(-c2nc3sccn3c2-c2ccnc(NCCCNS(=O)(=O)c3ccccc3)c2)c1

>  <Measured Attribute>
growth

>  <Readout Unit>
%

>  <Data Value>
59.5

$$$$
>  <Compound>
NC(CC(=O)O)C(=O)OCc1ccccc1 (stereo unspecified)

>  <Measured Attribute>
growth

>  <Readout Unit>
%

>  <Data Value>
98.6

$$$$
>  <Compound>
C=C1CCC2C3(C)COC(c4ccccc4Br)OC3CCC2(C)C1C/C=C1/C(=O)OCC1OC(C)=O (stereo unspecified)

>  <Measured Attribute>
growth

>  <Readout Unit>
%

>  <Data Value>
-72.8

$$$$
>  <Compound>
C[C@@H]1CC[C@@H]2[C@@H]1[C@H](OC(=O)/C=C/c1ccccc1)[C@]1(c3ccccc3)C[C@@H](OC(=O)CO)[C@@]2(C)O1

>  <Measured Attribute>
growth

>  <Readout Unit>
%

>  <Data Value>
98

$$$$
>  <Compound>
Nc1c(C(=O)Nc2cccc3c2OCCO3)sc2nc3c(cc12)CN(Cc1ccccc1)CC3

>  <Measured Attribute>
growth

>  <Readout Unit>
%

>  <Data Value>
87.1

$$$$
>  <Compound>
CC(C)[C@@H]1CC[C@]2(C(=O)NCCCCN=C(N)N)CC[C@]3(C)[C@H](CC[C@@H]4[C@@]5(C)CCC(=O)C(C)(C)[C@@H]5CC[C@]43C)[C@@H]12

>  <Measured Attribute>
growth

>  <Readout Unit>
%

>  <Data Value>
70.7

$$$$
>  <Compound>
Oc1ccc(Nc2nccc(-c3ccc4ccccc4c3)n2)cc1

>  <Measured Attribute>
growth

>  <Readout Unit>
%

>  <Data Value>
40.1

$$$$
>  <Compound>
CS(=O)CCCCCN=C=S (stereo unspecified)

>  <Measured Attribute>
growth

>  <Readout Unit>
%

>  <Data Value>
9.82

$$$$
>  <Compound>
COc1ccc2nc3cc(Cl)ccc3c(N3CCN(c4ccnc(N5CCOCC5)n4)CC3)c2c1

>  <Measured Attribute>
growth

>  <Readout Unit>
%

>  <Data Value>
92.8

$$$$
>  <Compound>
Oc1cc(O)c2c(=S)cc(-c3ccc(Cl)cc3)oc2c1

>  <Measured Attribute>
growth

>  <Readout Unit>
%

>  <Data Value>
74.6

$$$$
>  <Compound>
C[C@@]1(N2C(=O)OC[C@@H]2c2ccccc2)C(=O)N([C@H](CC(=O)N2CCC(N3CCCCC3)CC2)C(=O)NCc2cccc(C(F)(F)F)c2)[C@@H]1/C=C/c1ccccc1

>  <Measured Attribute>
growth

>  <Readout Unit>
%

>  <Data Value>
70

$$$$
>  <Compound>
COc1cc(OC)c(/C=C/c2cc[n+](C)c3ccccc23)c(OC)c1

>  <Measured Attribute>
growth

>  <Readout Unit>
%

>  <Data Value>
26.1

$$$$
>  <Compound>
O=c1cc(-c2ccccc2)[nH]c2ccccc12

>  <Measured Attribute>
growth

>  <Readout Unit>
%

>  <Data Value>
32.3

$$$$
>  <Compound>
CC1CN(Cc2ccco2)C(=S)N(c2ccccc2)C1=O (stereo unspecified)

>  <Measured Attribute>
growth

>  <Readout Unit>
%

>  <Data Value>
103

$$$$
>  <Compound>
CSc1ccc(N=C=C(c2ccccc2)c2ccccc2)cc1

>  <Measured Attribute>
growth

>  <Readout Unit>
%

>  <Data Value>
95.6

$$$$
>  <Compound>
O=C(CO[N+](=O)[O-])Nc1ccc(C(=O)/C=C/c2ccc(Cl)cc2)cc1

>  <Measured Attribute>
growth

>  <Readout Unit>
%

>  <Data Value>
75

$$$$
>  <Compound>
O=C1C(Cl)=C(Cl)C(=O)c2c1nc1n2CCCC1

>  <Measured Attribute>
growth

>  <Readout Unit>
%

>  <Data Value>
94.7

$$$$
>  <Compound>
Cc1ccc(S(=O)(=O)N(CCc2ccc(Cl)cc2)S(=O)(=O)c2ccc(C)cc2)cc1

>  <Measured Attribute>
growth

>  <Readout Unit>
%

>  <Data Value>
94.4

$$$$
>  <Compound>
CN(C)c1ccc(/C=C(\C#N)c2nc3ccccc3s2)cc1

>  <Measured Attribute>
growth

>  <Readout Unit>
%

>  <Data Value>
96.8

$$$$
>  <Compound>
Nc1cccc(NC(=O)C(=O)Nc2cccc(N)c2)c1

>  <Measured Attribute>
growth

>  <Readout Unit>
%

>  <Data Value>
68.5

$$$$
>  <Compound>
O=C1C(=O)N(CCCCn2cc(CO)nn2)c2ccccc21

>  <Measured Attribute>
growth

>  <Readout Unit>
%

>  <Data Value>
99.9

$$$$
>  <Compound>
Cn1c2c(Cl)c(Cl)ccc2c2ccn3c(=O)c4ccccc4nc3c21

>  <Measured Attribute>
growth

>  <Readout Unit>
%

>  <Data Value>
99.2

$$$$
>  <Compound>
Nc1c(C(=O)Nc2cccc3c2OCCO3)sc2nc3c(cc12)C(=O)CCC3

>  <Measured Attribute>
growth

>  <Readout Unit>
%

>  <Data Value>
44.5

$$$$
>  <Compound>
C[C@@H]1CCC2=C(CCC[C@]2(C)C(=O)O)[C@@]1(C)CCc1ccoc1

>  <Measured Attribute>
growth

>  <Readout Unit>
%

>  <Data Value>
112

$$$$
>  <Compound>
CCCCCCCCCCCCCCCC(=O)OCC1OC(n2cnc3c(=S)nc(N)[nH]c32)C(OC(=O)CCCCCCCCCCCCCCC)C1OC(=O)CCCCCCCCCCCCCCC (stereo unspecified)

>  <Measured Attribute>
growth

>  <Readout Unit>
%

>  <Data Value>
61

$$$$
>  <Compound>
COC(=S)SCN(CSC(=S)OC)c1ccc(Cl)cc1

>  <Measured Attribute>
growth

>  <Readout Unit>
%

>  <Data Value>
94.3

$$$$
